- system: Grb2 SH2 (UniProt P62993)
- Sequence (P62993 whole entry, looked up, the tested form may be a part): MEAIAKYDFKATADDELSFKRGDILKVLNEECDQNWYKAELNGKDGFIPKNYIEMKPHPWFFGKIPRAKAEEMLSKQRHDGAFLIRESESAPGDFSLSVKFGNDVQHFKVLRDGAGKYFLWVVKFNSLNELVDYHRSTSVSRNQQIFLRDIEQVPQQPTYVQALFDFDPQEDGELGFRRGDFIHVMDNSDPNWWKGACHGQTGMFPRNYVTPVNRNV
- assay procedure: SH2 binding enrichment of the phosphorylated peptide, bacterial display (enrichment ratio); higher = better substrate or ligand; peptides without Tyr show the background;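 further: peptide library displayed on the E. coli surface as eCPX fusions, selected cells deep-sequenced, score is each peptide's frequency after selection divided by its frequency in the input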
Threshold rule: SH2 binding enrichment greater than or equal to 0.9 is TRUE; below that, FALSE.

query_sequence="RGLQVYHRRNA [LRP2_Y2010]" assigned_label=FALSE
query_sequence="CATIHYNFMCN [TP53_Y234_T230A_YF]" assigned_label=TRUE
query_sequence="PFRFIYMAVQH [PTPN11_Y515_Q510P_YF]" assigned_label=TRUE
query_sequence="TVLWWYTGTRP [UGT1A1_Y337_R336W]" assigned_label=TRUE
query_sequence="PHIKTYMRPSP [TDP1_Y497]" assigned_label=FALSE
query_sequence="ARLEYCENEKK [IRS1_Y47_Y47C]" assigned_label=FALSE
query_sequence="IDQDKYAVRFI [FLNA_Y2388]" assigned_label=FALSE
query_sequence="QTEAEYRFIYM [PTPN11_Y511_Q510E]" assigned_label=FALSE
query_sequence="QRALLYEDALY [UNC13D_Y56]" assigned_label=FALSE
query_sequence="GTVRDYPDFSP [ANXA3_Y15]" assigned_label=FALSE
query_sequence="NKVFTYIFIME [SCN4A_Y1074_D1069N]" assigned_label=FALSE
query_sequence="PSPTKYSLSPS [RANBP2_Y785_R784K]" assigned_label=FALSE
query_sequence="PLFRKYWPNHI [GREB1L_Y1560_YF]" assigned_label=FALSE
